Cited source for all entries: the Immune Epitope Database (IEDB)

Molecular target: HLA-B*35:01
Assay: IEDB peptide-MHC binding, purified MHC/competitive/radioactivity; filed as Kd, often an IC50 or EC50 that approximates it; bounds were set here for any values at or beyond the usual limits of such assays
Conditions: source organism: Triticum aestivum
endpoint: Kd (nM)
Could you give me the number in nM? Just the number is fine.

Sample QPYPQPQPQY , system: HLA-B*35:01. Its Kd is 48

====

Molecular target: HLA-A*31:01
Experiment: IEDB peptide-MHC binding, purified MHC/direct/fluorescence; filed as Kd, often an IC50 or EC50 that approximates it; bounds were set here for any values at or beyond the usual limits of such assays
Settings: source organism: Haemophilus influenzae
endpoint: pKd
pKd is a log-scale quantity: -log10 of the concentration expressed in molar.

pKd measured on ILKEHVSRY = 5.25

# pKd (sequence: MTMRRRLFK ) is 7.69
